System: barnyardgrass
Assay Overview: Test A preemergence
Assay type: in vivo, Echinochloa crus-galli
Measurement Conditions: preemergence, 125 g ai/ha; visual injury, 0 to 100 scale, approx. 10 days
Property Measured: Barnyardgrass plant response rating

Answered cases to consult:
CCCNC(=O)c1cc(CC)n(Cc2ccnc(OC(F)F)c2)n1 | 100
CCNC(=O)c1cc(C)n(Cc2cccc(OC(F)(F)F)c2)n1 | 0

Q: Kindly indicate its recorded Barnyardgrass plant response rating. Item: `CCc1cc(C(=O)NCC(F)(F)F)nn1Cc1nnc(C(F)(F)F)o1`
Ans: 0

---

Test system: nutsedge, yellow
Assay Overview: Test C postemergence
Type: in vivo, Cyperus esculentus
Measurement Conditions: postemergence; 125 g ai/ha; scale 0 to 100, 0 no effect, 100 complete control
Property Measured: Plant response rating, Nutsedge, Yellow
Reply with just the number.

Q: Kindly indicate its recorded Plant response rating, Nutsedge, Yellow. Item: `CCOc1cc(C(=O)NC2CC2)nn1Cc1ccnc(OC(F)F)c1`
Ans: 5
